target: DCAF15/RBM39 (Homo sapiens (Human), UniProt Q14498+Q66K64); assay: AlphaLISA compound-induced DCAF15-RBM39 ternary complex formation; settings: His-tagged DCAF15 complex and biotin-carrying RBM39
Sequence (Q66K64 whole entry, species assumed): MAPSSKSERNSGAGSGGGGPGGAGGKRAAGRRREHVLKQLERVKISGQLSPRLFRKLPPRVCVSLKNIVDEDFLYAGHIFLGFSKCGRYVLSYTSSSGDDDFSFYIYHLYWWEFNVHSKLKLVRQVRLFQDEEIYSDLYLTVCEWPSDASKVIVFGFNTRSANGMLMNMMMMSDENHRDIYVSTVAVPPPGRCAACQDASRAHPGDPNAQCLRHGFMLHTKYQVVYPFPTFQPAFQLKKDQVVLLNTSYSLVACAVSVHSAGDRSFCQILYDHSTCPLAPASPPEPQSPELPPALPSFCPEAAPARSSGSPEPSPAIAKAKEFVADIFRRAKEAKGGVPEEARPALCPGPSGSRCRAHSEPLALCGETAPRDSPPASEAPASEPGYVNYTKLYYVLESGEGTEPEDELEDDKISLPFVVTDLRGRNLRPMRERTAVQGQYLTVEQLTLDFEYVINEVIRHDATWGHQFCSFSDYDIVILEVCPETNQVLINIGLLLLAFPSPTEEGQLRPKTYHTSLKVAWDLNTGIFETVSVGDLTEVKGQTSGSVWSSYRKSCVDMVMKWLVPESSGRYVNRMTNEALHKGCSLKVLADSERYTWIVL
Sequence (Q14498 whole entry, species assumed): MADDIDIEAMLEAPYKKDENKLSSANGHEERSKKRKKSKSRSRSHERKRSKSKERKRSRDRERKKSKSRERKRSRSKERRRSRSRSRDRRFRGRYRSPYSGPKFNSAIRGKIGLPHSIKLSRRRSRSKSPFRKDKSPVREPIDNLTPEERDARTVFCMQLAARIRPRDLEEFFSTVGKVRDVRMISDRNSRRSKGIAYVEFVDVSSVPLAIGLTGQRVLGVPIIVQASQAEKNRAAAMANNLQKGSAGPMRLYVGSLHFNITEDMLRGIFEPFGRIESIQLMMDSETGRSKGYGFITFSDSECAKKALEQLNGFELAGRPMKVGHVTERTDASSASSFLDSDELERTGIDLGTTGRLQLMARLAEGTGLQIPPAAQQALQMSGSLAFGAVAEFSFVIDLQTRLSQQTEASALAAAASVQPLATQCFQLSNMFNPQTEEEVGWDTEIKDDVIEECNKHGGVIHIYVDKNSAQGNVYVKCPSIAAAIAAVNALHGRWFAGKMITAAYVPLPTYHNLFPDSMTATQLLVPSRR
Sequence (Q16531 whole entry partner, species assumed): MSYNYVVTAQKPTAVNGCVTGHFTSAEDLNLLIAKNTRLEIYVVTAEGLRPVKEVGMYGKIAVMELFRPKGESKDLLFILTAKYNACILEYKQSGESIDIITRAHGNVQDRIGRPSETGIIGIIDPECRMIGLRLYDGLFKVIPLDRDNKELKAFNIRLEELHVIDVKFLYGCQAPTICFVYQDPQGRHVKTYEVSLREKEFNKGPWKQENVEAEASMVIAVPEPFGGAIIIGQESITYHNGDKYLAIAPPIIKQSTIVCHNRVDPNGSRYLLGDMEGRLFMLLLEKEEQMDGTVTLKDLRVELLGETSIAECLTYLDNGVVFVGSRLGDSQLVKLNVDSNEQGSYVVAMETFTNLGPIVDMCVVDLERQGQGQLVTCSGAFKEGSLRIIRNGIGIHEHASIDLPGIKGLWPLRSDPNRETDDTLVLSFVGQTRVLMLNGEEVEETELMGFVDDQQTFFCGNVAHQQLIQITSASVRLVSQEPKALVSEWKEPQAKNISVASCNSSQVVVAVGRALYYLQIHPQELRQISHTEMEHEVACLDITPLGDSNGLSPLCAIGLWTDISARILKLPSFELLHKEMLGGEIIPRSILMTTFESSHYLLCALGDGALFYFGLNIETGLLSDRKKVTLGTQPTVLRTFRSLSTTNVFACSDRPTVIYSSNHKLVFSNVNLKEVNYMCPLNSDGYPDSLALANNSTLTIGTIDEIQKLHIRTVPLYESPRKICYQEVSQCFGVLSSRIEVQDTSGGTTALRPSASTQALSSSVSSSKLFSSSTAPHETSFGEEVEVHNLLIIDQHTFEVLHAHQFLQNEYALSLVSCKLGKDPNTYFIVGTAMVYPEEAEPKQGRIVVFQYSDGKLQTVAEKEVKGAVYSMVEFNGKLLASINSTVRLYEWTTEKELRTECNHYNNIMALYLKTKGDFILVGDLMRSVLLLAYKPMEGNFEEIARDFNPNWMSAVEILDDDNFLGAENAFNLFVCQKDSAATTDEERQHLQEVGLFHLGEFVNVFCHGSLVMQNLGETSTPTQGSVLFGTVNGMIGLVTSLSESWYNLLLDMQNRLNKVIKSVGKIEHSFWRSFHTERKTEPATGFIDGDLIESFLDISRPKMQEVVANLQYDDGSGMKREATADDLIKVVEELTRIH
I'd appreciate it if you could supply EC50 values for the items below.

Prompt: GET /values?readout=EC50&item= O=C1COc2cc(S(=O)(=O)Nc3ccc(Cl)c4c(Cl)c[nH]c34)ccc2N1
Completion: ≤ 1000 nM

Prompt: Another: CC(C)(C)OC(=O)N1CCCc2cc(S(=O)(=O)Nc3ccc(Cl)c4c(Cl)c[nH]c34)ccc2C1 [Compound 47]
Completion: ≤ 1000 nM

Prompt: Another: O=C1OCCc2ccc(S(=O)(=O)Nc3ccc(Cl)c4c(Cl)c[nH]c34)cc21
Completion: ≤ 1000 nM

Prompt: Another: CC(=O)N1CCc2cc(S(=O)(=O)Nc3ccc(Cl)c4c(Cl)c[nH]c34)ccc21
Completion: 1000 to 10000 nM

Prompt: Another: O=C1NS(=O)(=O)c2ccc(S(=O)(=O)Nc3ccc(Cl)c4c(Cl)c[nH]c34)cc21
Completion: 1000 to 10000 nM

Prompt: Another: O=c1[nH]c2ccc(S(=O)(=O)Nc3ccc(Cl)c4c(Cl)c[nH]c34)cc2o1
Completion: 1000 to 10000 nM

Prompt: Another: O=C1COc2ccc(S(=O)(=O)Nc3ccc(Cl)c4c(Cl)c[nH]c34)cc2N1
Completion: 1000 to 10000 nM

Prompt: Another: CC(=O)N1Cc2ccc(S(=O)(=O)Nc3ccc(Cl)c4c(Cl)c[nH]c34)cc2C1
Completion: 1000 to 10000 nM

Prompt: Another: O=C1Nc2ccc(S(=O)(=O)Nc3ccc(Cl)c4c(Cl)c[nH]c34)cc2C1=O
Completion: 1000 to 10000 nM

Prompt: Another: O=C1NCCc2ccc(S(=O)(=O)Nc3ccc(Cl)c4c(Cl)c[nH]c34)cc21
Completion: 1000 to 10000 nM

Prompt: Another: Cn1c(=O)c2cc(S(=O)(=O)Nc3ccc(Cl)c4c(Cl)c[nH]c34)ccc2n(C)c1=O
Completion: ≤ 1000 nM

Prompt: Another: CN1Cc2cc(S(=O)(=O)Nc3ccc(Cl)c4c(Cl)c[nH]c34)ccc2OC1=O
Completion: ≤ 1000 nM

Prompt: Another: O=S(=O)(Nc1ccc(Cl)c2c(Cl)c[nH]c12)c1ccc2occc2c1
Completion: ≤ 1000 nM

Prompt: Another: O=S(=O)(Nc1ccc(Cl)c2c(Cl)c[nH]c12)c1ccc2c(c1)OC(F)(F)O2
Completion: ≤ 1000 nM

Prompt: Another: Cn1cc(S(=O)(=O)Nc2ccc(Cl)c3c(Cl)c[nH]c23)c2ccccc21
Completion: 1000 to 10000 nM

Prompt: Another: CC1(C)CC(=O)Nc2ccc(S(=O)(=O)Nc3ccc(Cl)c4c(Cl)c[nH]c34)cc21
Completion: ≤ 1000 nM

Prompt: Another: CC1(C)Cc2cc(S(=O)(=O)Nc3ccc(Cl)c4c(Cl)c[nH]c34)ccc2O1
Completion: 1000 to 10000 nM
